Molecular target: pooled human IgG (human IgG1, 2, 3 and 4)
Enzyme Activity Endpoint Assay: IgG by entry:
Observable: Enzyme Activity Endpoint Assay: IgG (ng/µL)

Protein | Endpoint Value
PRT-424 (protein) MTITSVWTKGVTPPTPEDFRYNNEDVLHAPYVANQGWYDITKTFDGKDNLLCGAATAGNMLHWWFDQNKEEIERYLKKHPEKQKIIFNNQELFDVKAAIDTKDSQTNSKLFNYFRDKAFPNLSARQLGVMPDLVLDMFINGYYLNLGKTQSTDVNRPYQDKDKRGGIFDAVFTRGDQTTLLTARHDLKNKGLNEISDLIKQELTEGKALALSHTYANVRINHVINLWGADFDAEGNLIAIYVTDSDANASIGMKKYFVGVNANGKVAISAKKIEGDNIGAQVLGLFTLSLGQDIWQKLS | 88
PRT-500 (protein) MVTSVWTKGVTPPADFTQGEDVFHAPYVANQGWYDITKAFDGGDDLLCGAATAGNMLHWWFDQNKEYIEAYLKKHPEKQKIMFGDQELLDVRKAINTKGSQKNSELFNYFRDKAFPNLSARRLGVMPDLVLDMFINGYYLNVTKTQTTDVNRTYQEKDKRGGIFDAVFTRGDQSKLLTSRHDLKNKGLKEISDLIKQELTEGKALGLSHTYANVRINHVINLWGADFDSDGNLKAIYVTDSDSNASIGMKKYFVGVNSAGKVAISAKEIKEDNIGAQVLGLFTLSTGQDIWNQTNLEHHHHHH | 0
